Ref: ChEMBL document CHEMBL5257065

Biological target: Tyrosine-protein phosphatase non-receptor type 1 (Homo sapiens) (UniProt P18031)
Sequence (P18031 whole entry): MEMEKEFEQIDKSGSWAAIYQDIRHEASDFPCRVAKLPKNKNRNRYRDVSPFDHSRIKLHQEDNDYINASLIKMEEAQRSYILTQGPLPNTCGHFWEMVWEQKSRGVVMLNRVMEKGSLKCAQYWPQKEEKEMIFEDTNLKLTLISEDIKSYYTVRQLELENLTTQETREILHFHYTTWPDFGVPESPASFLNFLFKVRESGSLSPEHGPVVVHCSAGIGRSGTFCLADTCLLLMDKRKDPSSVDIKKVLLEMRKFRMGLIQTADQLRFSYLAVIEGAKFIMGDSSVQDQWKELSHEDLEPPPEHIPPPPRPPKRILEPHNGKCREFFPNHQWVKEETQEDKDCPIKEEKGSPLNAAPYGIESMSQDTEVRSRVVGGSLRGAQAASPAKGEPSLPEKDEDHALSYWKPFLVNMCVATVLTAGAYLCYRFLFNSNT
Experiment: Inhibition of PTP1B (unknown origin) at 10 micromol/L by DAS-ELISA
Details: dose 10.0 µmol/L
Quick reference for inhibition among some molecules
observable: inhibition (%)

testSmiles | valueMeasured
CCOC(=O)[C@]1(C)CCC[C@@]2(C)[C@@H]3CC[C@@]4(C)C[C@]3(CC[C@@H]21)C[C@H]4O | 67.2
C[C@@]12CC[C@@H]3[C@@](CC[C@H]4[C@@]3(C)CCC[C@@]4(C)C(=O)OCc3ccccc3Cl)(CC1=O)C2 | 43.8
Cc1ccc(S(=O)(=O)N/N=C2/C[C@]34CC[C@H]5[C@@](C)(CCC[C@@]5(C)C(=O)O)[C@@H]3CC[C@@]2(C)C4)cc1 | 75.3
C[C@@]12CC[C@@H]3[C@@](CC[C@H]4[C@@]3(C)CCC[C@@]4(C)C(=O)OCCN3CCCCC3)(CC1=O)C2 | 74.2
CCOC(=O)[C@]1(C)CCC[C@@]2(C)[C@@H]3CC[C@@]4(C)C[C@]3(CC[C@@H]21)CC4=O | 73.9
CCOC(=O)[C@]1(C)CCC[C@@]2(C)[C@@H]3CC[C@@]4(C)C[C@]3(CC[C@@H]21)[C@H](Br)C4=O | 81.7
C[C@@]12CC[C@@H]3[C@@](CC[C@H]4[C@@]3(C)CCC[C@@]4(C)C(=O)OCCCCCBr)(CC1=O)C2 | 71.9

* * *

Species: Homo sapiens
Assay: Selectivity ratio of IC50 for CDC25B (unknown origin) to IC50 for PTP1B (unknown origin) by DAS-ELISA
Quick reference for Ratio IC50 among some compounds

testSmiles | Ratio IC50
CCOC(=O)[C@]1(C)CCC[C@@]2(C)[C@@H]3CC[C@@]4(C)C[C@]3(CC[C@@H]21)[C@H](Br)C4=O | 14
C[C@@]12CC[C@@H]3[C@@](CC[C@H]4[C@@]3(C)CCC[C@@]4(C)C(=O)OCc3ccc(Br)cc3)(CC1=O)C2 | 6
CCOC(=O)[C@]1(C)CCC[C@@]2(C)[C@@H]3CC[C@@]4(C)C[C@]3(CC[C@@H]21)C[C@H]4OC(=O)c1ccc(O)cc1 | 6
C[C@@]12CC[C@@H]3[C@@](CC[C@H]4[C@@]3(C)CCC[C@@]4(C)C(=O)OCc3ccccc3I)(CC1=O)C2 | 6

* * *

Target: Tyrosine-protein phosphatase non-receptor type 1 (Homo sapiens) (UniProt P18031)
Experiment: Inhibition of PTP1B (unknown origin) at 10 micromol/L by DAS-ELISA
Conditions: dose 10.0 µmol/L
observable: inhibition (%)

testSmiles | measuredTarget | valueMeasured
C[C@@]12CC[C@@H]3[C@@](CC[C@H]4[C@@]3(C)CCC[C@@]4(C)C(=O)OCc3ccccc3I)(CC1=O)C2 | Tyrosine-protein phosphatase non-receptor type 1 (Homo sapiens) (UniProt P18031) | 82.6
CCOC(=O)[C@]1(C)CCC[C@@]2(C)[C@@H]3CC[C@@]4(C)C[C@]3(CC[C@@H]21)C[C@H]4OC(=O)c1ccccc1 | Tyrosine-protein phosphatase non-receptor type 1 (Homo sapiens) (UniProt P18031) | 75.5
C[C@@]12CC[C@@H]3[C@@](CC[C@H]4[C@@]3(C)CCC[C@@]4(C)C(=O)OCCCCBr)(CC1=O)C2 | Tyrosine-protein phosphatase non-receptor type 1 (Homo sapiens) (UniProt P18031) | 70.9
